Assay: chemical genetic growth profiling, strain panel (AID 1159580);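 note: tested at 20 µM; growth read once vehicle control cultures reached saturation at 30 °C; 1 = growth at the plate median or of vehicle wells; lower values mean less growth of the strain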
Details: S. cerevisiae deletion strains, growth OD, locus YHR079C, strain IRE1, hits give low values
Out of some 5,500 compounds screened, about 2,000 (36%) were called active. Roughly 18% stayed inconclusive and do not appear here. This is one part of the list.
metric: normalized growth
Form: value (number only, do not type unit).

Use the examples below as a reference point.
O=C(O)c1ccccc1-c1c2cc(I)c(=O)c(I)c-2oc2c(I)c(O)c(I)cc12    1
CCCCN1CCCCC1C(=O)Nc1c(C)cccc1C (stereo not given)    0.975

// query Item NS(=O)(=O)c1cc2c(cc1Cl)NC(C(Cl)Cl)NS2(=O)=O (stereo not given) has what recorded normalized growth?
// result 0.989

// query Item `Clc1cccc(Cl)c1NC1=NCCN1` has what recorded normalized growth?
// result 0.98

// query Item `CO/N=C(\C(=O)N[C@@H]1C(=O)N2C(C(=O)O)=C(COC(C)=O)CS[C@H]12)c1csc(N)n1` has what recorded normalized growth?
// result 0.992
